Listing of recorded GI50 by entry.
- Test system: PC-3
- Assay Remarks: NCI tumour cell line growth inhibition, 48 h
Calls of active or inactive are those of the source. No stated cut-off is given here; in the data, active = GI50 up to about 1.1 µM and inactive = higher.

Completed entries (count: 9):
INSERT INTO assay_data (compound, assayed_target, value_measured) VALUES
  ('COc1cc(C(=O)OCCn2[nH]c(-c3ccc(Cl)cc3)nc2=S)cc(OC)c1OC', 'PC-3', '> 100 µM (inactive)'),
  ('O=C(O)C1CCCN1Cc1cc2ccccc2c2ccccc12 (stereo not given)', 'PC-3', '> 100 µM (inactive)'),
  ('COC(=O)c1cnn2c1n[n+]([O-])c1ccccc12', 'PC-3', '> 100 µM (inactive)'),
  ('Nc1nc(Cl)c(CO)c(NCC2(CO)CC(CCc3ccccc3)C2)n1 (stereo not given)', 'PC-3', '51.3 µM (inactive)'),
  ('Cc1nnc2n(c1=O)CCCN2C', 'PC-3', '> 100 µM (inactive)'),
  ('O=S(=O)(c1cc(Cl)ccc1Cl)N1CCN(c2ccc(Cl)c(Cl)c2)CC1', 'PC-3', '99.8 µM (inactive)'),
  ('COc1cccc(NC(=O)CC(=O)NN)c1', 'PC-3', '> 100 µM (inactive)'),
  ('O=C1OS2(OC(=O)c3cccc4cccc2c34)c2ccccc21 (stereo not given)', 'PC-3', '> 100 µM (inactive)'),
  ('c1csc(-c2cc(-c3cccs3)c(-c3ccsc3)s2)c1', 'PC-3', '> 100 µM (inactive)');

Please look at the following compound next.
The recorded GI50 with PC-3 for Cc1ccccc1/N=N/c1c(O)ccc2ccccc12 was > 100 µM (inactive)

----------
- System: SF-539
- Assay Remarks: NCI tumour cell line growth inhibition, 48 h
The source made the active and inactive calls. Rule as the data show it: active = GI50 up to about 1.1 µM and inactive = higher.
Result Type: GI50

These recorded examples may help you get a feel for the data.
INSERT INTO measurements (compound, value_measured) VALUES
  ('Oc1ccc2c(c1)OCC1c3ccccc3OC21 (stereo not drawn)', '> 100 µM (inactive)'),
  ('O=S(=O)(O)c1ccc(/N=N/c2ccc(/N=N/c3c(O)ccc4ccc(S(=O)(=O)O)cc34)cc2)cc1', '> 100 µM (inactive)'),
  ('COC(=O)CCC(NC(=O)OC(C)(C)C)C(=O)NC(Cc1ccc(NC(=O)CCCC(C)=O)cc1)C(=O)NC(CCC(=O)OC)C(=O)OC (stereo not drawn)', '> 100 µM (inactive)'),
  ('Cc1[nH]c2ccccc2c1/C=C/c1c(C)[nH]c2ccccc12', '> 100 µM (inactive)'),
  ('COc1cc2c(oc(=O)c3c4oc([Si](C)(C)C)cc4cc(OC)c23)c2cccc(OCc3ccccc3)c12', '20.7 µM (inactive)');

The recorded GI50 for entry COc1ccc(/C=C/c2ccnc3ccccc23)c(OC)c1 equals 4.34 µM (inactive)

For record Nc1nncc2[nH]nnc12 the listed GI50 is > 100 µM (inactive)

Entry CS(=O)(=O)OCCN1CCN(C(=O)c2cccc3c(Nc4ccc(S(N)(=O)=O)cc4)c4ccccc4nc23)CC1 ; GI50 = > 100 µM (inactive)

----------
- Test system: SF-295
- Assay Remarks: NCI tumour cell line growth inhibition, 48 h
Calls of active or inactive are those of the source. No stated cut-off is given here; in the data, active = GI50 up to about 1.1 µM and inactive = higher.
# GI50 per record follows

Solved cases below.
INSERT INTO assay_data (compound, result_type, value_measured) VALUES
  ('NC(=O)C#CC#CC#CCO', 'GI50', '3.94 µM (inactive)'),
  ('Cc1c(C#N)c(N)[nH]c(=S)c1C#N', 'GI50', '> 100 µM (inactive)'),
  ('CN(C)c1ccc(/C=C2\C[C@H]3[C@@H]4CC=C5C[C@@H](O)CC[C@]5(C)[C@H]4CC[C@]3(C)[C@H]2O)cc1', 'GI50', '20 µM (inactive)'),
  ('C/C(=C\CC[C@]1(C)OC(C)(C)OC1CC/C(C)=C/CO[Si](c1ccccc1)(c1ccccc1)C(C)(C)C)CC/C=C/CO[Si](C)(C)C(C)(C)C (stereo partly drawn)', 'GI50', '> 100 µM (inactive)'),
  ('CCCN(CCC)C(=O)c1nc(N)nc(-c2ccc(OC)cc2)c1-c1ccc(OC)cc1', 'GI50', '> 100 µM (inactive)');

The recorded GI50 for O=S(=O)(O)c1ccc(/N=N/c2ccc(/N=N/c3c(O)ccc4ccc(S(=O)(=O)O)cc34)cc2)cc1 is > 100 µM (inactive)

The recorded GI50 for CC(=O)OCCc1cccnc1/C=N/O is > 100 µM (inactive)

Recorded result, CCOC(=O)[C@]12C(=C(c3ccccc3)O[C@H]3C=CCC[C@H]31)C(=O)C(=O)N2c1ccccc1 , GI50: 98.4 µM (inactive)

The compound listed as N#C/C=C(/NC(=O)Nc1ccccc1)N1CCCC1 has a reported GI50 of > 31.5 µM (inactive)

# GI50 (compound: Cc1ccc(S(=O)(=O)N/N=C/C(C)C)cc1 ) is > 100 µM (inactive)

Record CS(=O)(=O)OCCN1CCN(C(=O)c2cccc3c(Nc4ccc(S(N)(=O)=O)cc4)c4ccccc4nc23)CC1 , field GI50: > 100 µM (inactive)

Item: COc1cccc(C2c3cc4c(cc3OC(N3CCCC3)C2C)OCO4)c1O (stereo not drawn) | GI50: 3.51 µM (inactive)

Reported GI50 ( O=CN/C=C/c1ccc(O)c(O)c1 ) = > 100 µM (inactive)
